system: D54 LucT luciferase reporter counterscreen, luminescence, 24 h; test: reporter signal increase, D54 LucT cells – cell-based, luminescence, cherry pick, counter-screen for N-linked glycosylation inhibitor project, dose response (AID 624404)
Inconclusive results are not listed. Active and inactive are the calls of the source.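 The calls were made as follows: active = luciferase signal rise whose fitted curve crosses a set activity limit at or below the top valid tested dose; inconclusive = flat fit with 30 to 70% rise, or poor fit; inactive = signal falling, flat within 30%, or crossing above top dose.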
Possible outcomes: active, inactive

{"compound": "COc1ccc(C(=O)n2c(-c3ccco3)nc3ccccc32)cc1", "label": "active"}
{"compound": "COc1cc2c(cc1OC)C(c1cccs1)N(C(=O)c1ccncc1)CC2 (stereo not given)", "label": "active"}
{"compound": "CC1(C(=O)NCCC(F)(F)F)Cc2c(-c3cccc(C(F)(F)F)c3)ccnc2O1 (stereo not given)", "label": "inactive"}
{"compound": "O=C(CSc1nnc(-c2cc3ccccc3cc2O)n1Cc1ccco1)N1CCc2ccccc2C1", "label": "active"}
{"compound": "CC1CN(C(=O)c2ccc(COc3ccc4ccccc4c3)o2)CC(C)O1 (stereo not given)", "label": "active"}
{"compound": "Cn1cc(C(=O)N/N=C/C(Br)=C/c2ccccc2)ccc1=O", "label": "active"}
{"compound": "COc1ccc(C(=O)CSc2nnc(-c3cc4ccccc4cc3O)n2Cc2ccco2)cc1", "label": "active"}
{"compound": "O=C(Nc1ncccc1O)c1ccc(C(=O)c2ccccc2)cc1", "label": "active"}
{"compound": "Cc1ccc(N2CC(C(=O)Nc3ccc(S(=O)(=O)N4CCOCC4)cc3)CC2=O)cc1Cl (stereo not given)", "label": "active"}
{"compound": "O=C(N/N=C/c1cccnc1)c1cc(-c2ccccc2OCc2ccccc2)n[nH]1", "label": "active"}
